- study_target: UniProt:A6T4I4
attribute_measured: IC50 (nM)
API: value field is a number in nM; no unit string.

Prompt: Param readout= IC50; system= UniProt:A6T4I4; entry= COc1cc(Cc2cnc(N)nc2N)cc(OC)c1OC ; returns value.
Completion: 106
